# experiment summary: Pharmacokinetic evaluation of Vacquinol-1 stereoisomers, plasma and brain
# Type: in vivo, NMRI (SR/RS) or BALB/c (Vrac) mice
# measurement setup: NMRI (single stereoisomers SR/RS), BALB/c (racemate), mouse, plasma, po; 20 mg/kg p.o., mice
reported metric: Cmax (ng/mL)
# value in ng/mL; strip the unit string

Annotate the molecule OC(c1cc(-c2ccc(Cl)cc2)nc2ccccc12)C1CCCCN1 (racemic) with its measured Cmax.
3280

###

# experiment summary: Pharmacokinetic evaluation of Vacquinol-1 stereoisomers, plasma and brain
# Assay type: in vivo, NMRI (SR/RS) or BALB/c (Vrac) mice
# measurement setup: NMRI (single stereoisomers SR/RS), BALB/c (racemate), mouse, brain, iv; 2 mg/kg i.v., mice; read-out: t1/2 Brain (converted)
# Procedure: The pharmacokinetics of Vacquinol-1 (racemic), Vacquinol-1RS and Vacquinol-1SR, were determined in NMRI (SR/RS) or BALB/c (Vrac) mice following single intravenous (i.v.) or per oral (p.o) administration of 2 or 20 mg/kg Vacquinol-1, respectively. […] Bioanalytical quantification of Vacquinol-1 was analysed in plasma and brain samples by a UPLC-MS/MS. Pharmacokinetics were calculated by non-compartmental analysis (NCA) from composite (mean) profiles. […]
reported metric: half-life (days)
All answers are understood in days, so give the number only.

Hello, please tell me recorded half-life for this one: OC(c1cc(-c2ccc(Cl)cc2)nc2ccccc12)C1CCCCN1 (racemic)
2.62

###

# experiment summary: Pharmacokinetic evaluation of Vacquinol-1 stereoisomers, plasma and brain
# Assay type: in vivo, NMRI (SR/RS) or BALB/c (Vrac) mice
# measurement setup: NMRI (single stereoisomers SR/RS), BALB/c (racemate), mouse, plasma, po; 20 mg/kg p.o., mice; read-out: AUClast Plasma
reported metric: AUC(0-t)
# do not omit the unit; it follows the number

Provide one value: measured AUC(0-t) of OC(c1cc(-c2ccc(Cl)cc2)nc2ccccc12)C1CCCCN1 (racemic) [Compound S10]
292 µg·h/mL

###

# experiment summary: Pharmacokinetic evaluation of Vacquinol-1 stereoisomers, plasma and brain
# Type: in vivo, NMRI (SR/RS) or BALB/c (Vrac) mice
# measurement setup: NMRI (single stereoisomers SR/RS), BALB/c (racemate), mouse, brain, po; 20 mg/kg p.o., mice; read-out: tmax Brain
reported metric: Tmax (h)
Reply with just the number (in h).

Please report the measured Tmax for OC(c1cc(-c2ccc(Cl)cc2)nc2ccccc12)C1CCCCN1 (racemic)
48

###

# Tested on: glioma stem cell line U3013
# experiment summary: In vitro cancer cell and CSC viability assay (ATP quantification, CellTiterGlo)
# Assay type: cell-based, human
# measurement setup: Homo sapiens; U3013, 24 hours exposure; read-out: In vitro efficacy (viability) EC50
pEC50: −log10 of the molar value.
Consider the cut-off 5. If the recorded pEC50 is strictly smaller, the label is Satisfied; if not, the label is Not satisfied.

Below are worked cases with known answers.
molecule	qualitative label
CN1CCCCC1C(O)c1cc(-c2ccc(Cl)cc2)nc2ccccc12 (stereo not drawn) [Compound S19]	Satisfied
COC(c1cc(-c2ccc(Cl)cc2)nc2ccccc12)C1CCCCN1 (stereo not drawn) [Compound S14]	Not satisfied
C#Cc1ccc(-c2cc(C(O)C3CCCCN3)c3ccccc3n2)cc1 (stereo not drawn) [Compound S8]	Not satisfied
Cc1ccc2nc(Nc3ccc(Cl)cc3)cc(C(O)C3CCCCN3)c2c1 (stereo not drawn) [Compound S3]	Not satisfied

# next molecule below
Hello, is pEC50 of the following molecule strictly smaller than 5? O[C@H](c1cc(-c2ccc(C(F)(F)F)cc2)nc2ccccc12)[C@H]1CCCCN1 (racemic) [Compound S28]
Satisfied
